Reference for the values: ChEMBL document CHEMBL1201862

- Test system: Hs-578T
- measurement-description: NCI tumour cell line growth inhibition, 48 h
Activity calls are given as the source filed them. No stated cut-off is given here; in the data, active = GI50 up to about 1.1 µM and inactive = higher. *1 amine or outer side, *2 acyl side, *3 side chain or, on linkers, in order; H or OH if unused. Where a SMILES comes first, the peptide text is derived from it. Bridges are numbered along the chain shown (N, C = ends). Roman numbers before positions name the chains, in order. [ ]: non-standard residue; d: D form. Actinocin(1to9) = Cc1c2oc3c(C)ccc(C(=O)[*:2])c3nc-2c(C(=O)[*:1])c(N)c1=O; NMeV = CN[CH](C(=O)O)C(C)C; Sar = CNCC(=O)O
Allowed answers: YES (active), NO (inactive)

Data request: Name the outcome recorded for O=C1N/C(=N/N=C\c2ccccc2)N/C1=C/c1ccc(Cl)cc1 in the assay.
Data returned: NO

Data request: Name the outcome recorded for Brc1cccc(Nc2nc(-c3cccs3)nc3ccc(Br)cc23)c1 in the assay.
Data returned: NO

Data request: Name the outcome recorded for C=C1CC[C@H]2C(=O)OC(c3ccoc3)C[C@]2(C)C/C=C\C=C/1C(=O)OC (stereo not given in full) in the assay.
Data returned: NO

Data request: Name the outcome recorded for CC1(C)C=C(/C=C2/N(S(=O)(=O)C(F)(F)F)C(/C=C3/N(S(=O)(=O)C(F)(F)F)C(C)(C#N)CC3(C)C)=CC2(C)C)N=C1/C=C1/CC(C)(C)C(=O)N1 (stereo not given) in the assay.
Data returned: NO

Data request: Name the outcome recorded for COc1ccc(NC(S)=Nc2cccc(C)n2)cc1 in the assay.
Data returned: NO

Data request: Name the outcome recorded for CCC(c1c[nH]c2ccc(Br)cc12)c1c[nH]c2ccc(Br)cc12 in the assay.
Data returned: NO

Data request: Name the outcome recorded for O=Cc1ccc(-c2cccc([N+](=O)[O-])c2)s1 in the assay.
Data returned: NO

Data request: Name the outcome recorded for CCC(C)C1NC(=O)C(NC(=O)c2c3nc4c(C(=O)NC5C(=O)NC(C(C)C)C(=O)N6CCCC6C(=O)N(C)CC(=O)N(C)C(C(C)C)C(=O)OC5C)ccc(C)c4oc-3c(C)c(=O)c2N)C(C)OC(=O)C(C(C)C)N(C)C(=O)CN(C)C(=O)C2CCCN2C1=O (stereo not given) (I: TIP[Sar][NMeV] / II: TVP[Sar][NMeV]; ester I:1-I:C, II:1-II:C; linker I:N-II:N via Actinocin(1to9); configuration not given here) in the assay.
Data returned: YES

Data request: Name the outcome recorded for CC(=O)Oc1c(C)cc(-c2cc(C)c(OC(C)=O)c(C)c2)cc1C in the assay.
Data returned: NO

Data request: Name the outcome recorded for COc1nc2ccc(COc3ccc(C(=O)NC(CCC(=O)O)C(=O)O)cc3)cc2nc1OC (stereo not given) in the assay.
Data returned: NO
